# Measurement Protocol: CCTE_Shafer_MEA_acute_burst_number: CCTE's Neural Acute Assay for Single-Electrode Bursts, Shafer Lab (AID 2284013)
Calls of active or inactive are those of the source. Rule for the calls: active = hit-call score of the fitted dose curve at least 0.9, where 1 is the maximum; inactive = score below 0.9.
Please answer using one outcome listed in True (active), False (inactive)

Lookup: Can you look up the reported call for "COc1cc(C=O)ccc1OC(=O)C(C)C" for me?
Found: False

Lookup: Can you look up the reported call for "C=C[Si](OCC)(OCC)OCC" for me?
Found: False

Lookup: Can you look up the reported call for "Nc1cc([N+](=O)[O-])ccc1O" for me?
Found: False

Lookup: Can you look up the reported call for "CN(C)C(=N)N=C(N)N" for me?
Found: False

Lookup: Can you look up the reported call for "CCC(=O)OCc1ccccc1" for me?
Found: False

Lookup: Can you look up the reported call for "CC[Si](OC(C)=O)(OC(C)=O)OC(C)=O" for me?
Found: True

Lookup: Can you look up the reported call for CC(=O)OCCC(C)CC(C)(C)C (centres undefined) for me?
Found: False

Lookup: Can you look up the reported call for OC1OC[C@@H](O)[C@H](O)[C@H]1O (some centres undefined) for me?
Found: False

Lookup: Can you look up the reported call for "CC(=O)[C@H]1CC[C@H]2[C@@H]3CC=C4C[C@@H](O)CC[C@]4(C)[C@H]3CC[C@]12C" for me?
Found: True

###

# Measurement Protocol: ATG_DR4_LXR_CIS: Attagene CIS-FACTORIAL HepG2 Assay for human Liver X Receptor (LXR), DR4 submotif (AID 2282929)
# Measurement Parameters: HepG2 Attagene DR4 cis-reporter, mRNA transcription; actives raise or lower the signal
Calls of active or inactive are those of the source. Rule for the calls: active = hit-call score of the fitted dose curve at least 0.9, where 1 is the maximum; inactive = score below 0.9.
Quantity Measured: AC50

// solved cases for AC50 follow
| Compound | AC50 |
| --- | --- |
| CC(C)(C)C(=O)c1ccccc1 | inactive |
| CCCCCCCCCCCCCCCC(=O)O | inactive |
| CCCCCCCCCCCCN(CCCCCCCCCCCC)CCCCCCCCCCCC | inactive |
| CC(=O)[C@H]1CC[C@H]2[C@@H]3CC=C4C[C@@H](O)CC[C@]4(C)[C@H]3CC[C@]12C | inactive |
| C=CC(=O)OCC(O)COc1ccccc1 (centres undefined) | 32 µM (active) |

Lookup: Returns the measured AC50 for the input compound. Input: C=CC(C)(CCC=C(C)C)OC=O (centres undefined)
Found: inactive

Lookup: Returns the measured AC50 for the input compound. Input: "[Ca+2]"
Found: inactive

###

# Read-out: Collagen III, COL3A1 (gene 1281)
# Measurement Protocol: BSK_MyoF_CollagenIII: BioMAP Diversity Plus: MyoF Assay for Collagen III Biomarker Activity (AID 2284239)
# Measurement Parameters: primary human lung fibroblasts
Calls of active or inactive are those of the source. How the source made its calls: active means hit-call score of the fitted dose curve at least 0.9, where 1 is the maximum; inactive means score below 0.9.
Please answer using one outcome listed in active, inactive

Lookup: Can you look up the reported call for CN(CCOc1ccc(CC2SC(=O)NC2=O)cc1)c1ccccn1 (centres undefined) for me?
Found: inactive

Lookup: Can you look up the reported call for "CCc1c(C)cc(N)c(CC)c1N" for me?
Found: inactive

Lookup: Can you look up the reported call for CC1COc2ccccc2N1C(=O)C(Cl)Cl (centres undefined) for me?
Found: active

Lookup: Can you look up the reported call for "CC(C)Oc1ccccc1O" for me?
Found: inactive

Lookup: Can you look up the reported call for "Cc1ccc2n[nH]nc2c1" for me?
Found: inactive

Lookup: Can you look up the reported call for "O=C(O)c1cn(-c2ccc(F)cc2)c2cc(N3CCNCC3)c(F)cc2c1=O" for me?
Found: inactive

Lookup: Can you look up the reported call for "Cc1ccc(O)c(C(C)(C)C)c1" for me?
Found: active

Lookup: Can you look up the reported call for "N#Cc1ccc(CC(=NNC(=O)Nc2ccc(OC(F)(F)F)cc2)c2cccc(C(F)(F)F)c2)cc1" for me?
Found: inactive

Lookup: Can you look up the reported call for "O=[N+]([O-])c1cc(C(F)(F)F)ccc1Cl" for me?
Found: inactive

###

# Measurement Protocol: ATG_DR4_LXR_CIS: Attagene CIS-FACTORIAL HepG2 Assay for human Liver X Receptor (LXR), DR4 submotif (AID 2282929)
# Measurement Parameters: HepG2 Attagene DR4 cis-reporter, mRNA transcription; actives raise or lower the signal
Activity calls are given as the source filed them. How the source made its calls: active means hit-call score of the fitted dose curve at least 0.9, where 1 is the maximum; inactive means score below 0.9.
Please answer using one outcome listed in true = active, false = inactive

Lookup: Can you look up the reported call for "Clc1nc(C(Cl)(Cl)Cl)c(Cl)c(Cl)c1Cl" for me?
Found: true

Lookup: Can you look up the reported call for "O=S(=O)(O)c1ccc(O)c2ncccc12" for me?
Found: false

Lookup: Can you look up the reported call for CC(CN1c2ccccc2Sc2ccccc21)N(C)C (stereo unspecified) for me?
Found: true

Lookup: Can you look up the reported call for "CC1=CC(=O)NS(=O)(=O)O1" for me?
Found: false

Lookup: Can you look up the reported call for "CC(C)(C)c1n[nH]c(=S)n(N)c1=O" for me?
Found: false

Lookup: Can you look up the reported call for "CCCCCCC#CC(=O)OC" for me?
Found: false

Lookup: Can you look up the reported call for O=C(O)CCCCC1CCSS1 (stereo unspecified) for me?
Found: false

Lookup: Can you look up the reported call for "CCCCCCCCCCCCN" for me?
Found: true

Lookup: Can you look up the reported call for "CC(C)=CCC[C@](C)(O)[C@@H]1CC=C(C)CC1" for me?
Found: false

Lookup: Can you look up the reported call for "CC(C)(C)NC(N)=O" for me?
Found: false

Lookup: Can you look up the reported call for "Sc1nc(S)nc(S)n1" for me?
Found: false

Lookup: Can you look up the reported call for "CCCc1ccccc1O" for me?
Found: false

Lookup: Can you look up the reported call for CC(=O)OCCC(C)CC(C)(C)C (stereo unspecified) for me?
Found: false

Lookup: Can you look up the reported call for "C=C(C)C(=O)Nc1ccc(Cl)c(Cl)c1" for me?
Found: false

Lookup: Can you look up the reported call for CCCCCC(CO)CCC (stereo unspecified) for me?
Found: false

Lookup: Can you look up the reported call for "O=C(O)CCCCCCCC(=O)O" for me?
Found: false

###

# Read-out: Vascular cell adhesion molecule 1 (VCAM1), VCAM1 (gene 7412)
# Measurement Protocol: BSK_LPS_VCAM1: BioMAP Diversity Plus: LPS Assay for Vascular cell adhesion molecule 1 (VCAM1) Biomarker Activity (AID 2283086)
# Measurement Parameters: primary human HUVEC with PBMC; actives raise or lower the signal
# Method: BSK_LPS is a cell-based, multiplexed-readout assay that uses umbilical vein endothelium and peripheral blood mononuclear cells, a human vascular primary cell co-culture, with measurements taken at 24 hours after chemical dosing in a 96-well plate.BSK_LPS_VCAM1 is an assay component measured in the BSK_LPS assay. It measures VCAM-1 antibody related to regulation of gene expression using ELISA technology.Data from the assay component BSK_LPS_VCAM1 was analyzed into 1 assay endpoint. […]
Calls of active or inactive are those of the source. The calls were made as follows: active = hit-call score of the fitted dose curve at least 0.9, where 1 is the maximum; inactive = score below 0.9.
Please answer using one outcome listed in TRUE = active, FALSE = inactive

Lookup: Can you look up the reported call for "C=C(C)C(=O)O[C@H]1C[C@@H]2CC[C@@]1(C)C2(C)C" for me?
Found: TRUE

Lookup: Can you look up the reported call for "C#C[C@]1(O)CC[C@H]2[C@@H]3CCC4=Cc5oncc5C[C@]4(C)[C@H]3CC[C@@]21C" for me?
Found: FALSE

Lookup: Can you look up the reported call for "O=P(c1ccccc1)(c1ccccc1)c1ccccc1" for me?
Found: FALSE

Lookup: Can you look up the reported call for "O=C(O)c1ccc([N+](=O)[O-])cc1" for me?
Found: FALSE

Lookup: Can you look up the reported call for "COc1cc(C=O)ccc1OC(=O)C(C)C" for me?
Found: FALSE

Lookup: Can you look up the reported call for "Cc1ccc2n[nH]nc2c1" for me?
Found: FALSE

Lookup: Can you look up the reported call for "Nc1cc([N+](=O)[O-])ccc1O" for me?
Found: FALSE

Lookup: Can you look up the reported call for "C=CCOC(=O)CCC1CCCCC1" for me?
Found: FALSE

Lookup: Can you look up the reported call for CC1CCC(C(C)CS)CC1S (stereo not drawn) for me?
Found: TRUE

Lookup: Can you look up the reported call for CCCCCCCCCCCCCCCCCC(=O)OCC(CC)CCCC (stereo not drawn) for me?
Found: FALSE

Lookup: Can you look up the reported call for "CNC[C@H](O)c1cccc(O)c1" for me?
Found: FALSE

Lookup: Can you look up the reported call for "N#Cc1ccc(CC(=NNC(=O)Nc2ccc(OC(F)(F)F)cc2)c2cccc(C(F)(F)F)c2)cc1" for me?
Found: FALSE

Lookup: Can you look up the reported call for "c1ccc2sc(SN(C3CCCCC3)C3CCCCC3)nc2c1" for me?
Found: FALSE
